Cited source: PubChem BioAssay (NCI)

System: HOP-62 NSCLC
ASSAY PROCEDURE: NCI tumour cell line growth inhibition, 48 h
MEASUREMENT NAME: GI50

[
  {
    "MOLECULE": "COc1cnc2c(c1)C(=O)c1c-2n(CCCNC2=NCCS2)c(=O)c2cc(F)ccc12",
    "GI50": "0.0595 µM"
  }
]

GI50 of COc1cc[c]([Sn]([c]2ccc(OC)cc2)([c]2ccc(OC)cc2)[c]2ccc(OC)cc2)cc1 on HOP-62 NSCLC?
81.8 µM

So what GI50 did CCCCN(CCCC)C(=O)[C@H](CC)[C@@H]1CC[C@@H](C)[C@@H]([C@H](C)[C@@H](O)[C@@H](C)C(=O)[C@H](CC)C2O[C@]3(C=C[C@@H](O)[C@]4(CC[C@@](C)([C@H]5CC[C@](O)(CC)[C@H](C)O5)O4)O3)[C@H](C)C[C@@H]2C)O1 (stereo partly drawn) get with HOP-62 NSCLC?
3.79 µM

Notebook: pull reported GI50 for HOP-62 NSCLC, entry CC(=O)Nc1ccc(C(=O)CCl)cc1
15 µM

Form field: GI50 recorded for NC1NC=NC2C1N=CN2C1OC(CO)C2[O][Sn][O]C21 (stereo not drawn) with HOP-62 NSCLC (enter value)
> 100 µM

###

Test system: MALME-3M melanoma
ASSAY PROCEDURE: NCI tumour cell line growth inhibition, 48 h
This listing pairs compounds with measured TGI.
Supply the numeric figure in µM, leaving out any unit text.

Look over these answered cases.
[
  {
    "SMILES NOTATION": "C=C1C(=O)O[C@H]2[C@H]1CC/C(COC(=O)c1cc(OC)c(OC)c(OC)c1)=C\\CC[C@@]1(C)O[C@@H]21",
    "UNITS TEXT": "µM",
    "TGI": 3.77
  },
  {
    "SMILES NOTATION": "COc1cc2oc(-c3cccc(C(=O)Nc4ccc(Cl)cc4)c3)cc(=O)c2c(OC)c1OC",
    "UNITS TEXT": "µM",
    "TGI": 7.26
  },
  {
    "SMILES NOTATION": "COc1cc2cc(Oc3ccc(NC(=O)Nc4cc(C(F)(F)F)cc(C(F)(F)F)c4)cc3)c(C)nc2cc1OCCN1CCOCC1",
    "UNITS TEXT": "µM",
    "TGI": 3.79
  }
]

Please turn your attention to the following entry.
Fill in the blank: the reported TGI of O=C1NC(=S)S/C1=C\c1cn(-c2ccccc2)nc1-c1ccccc1 is ____.
13.1

###

Tested on: SNB-75 CNS
ASSAY PROCEDURE: NCI tumour cell line growth inhibition, 48 h
MEASUREMENT NAME: TGI

Please review the following examples before continuing.
[
  {
    "COMPOUND": "CC(C)Oc1c(C2(c3ccccc3)SCCCS2)c(=O)c1=O",
    "TGI": "> 100 µM"
  },
  {
    "COMPOUND": "CC(C)C1CNC(=O)C2(C=NC(C(C)C)CNC(=O)C3(C=N1)CCCO3)CCCO2 (stereo not drawn)",
    "TGI": "> 10 µM"
  }
]

# query: TGI of entry CCOC(=O)C(NC(=O)OCc1ccccc1)C(=O)O (stereo not drawn)
> 100 µM

Recorded TGI for N#CC(NNC(=O)Cc1ccccc1)c1cccc(O)c1 (stereo not drawn) , please?
> 100 µM

// returns reported TGI for input Cc1nc(N)nc(N)c1CCCCc1ccc(N)cc1
29.3 µM

So what does the record say about TGI for CCCNC(=O)Nc1c([N+](=O)[O-])cc(C(F)(F)F)cc1[N+](=O)[O-] ?
> 100 µM

TGI for COc1ccccc1NC(=O)C1=C(C)NC(C)=C(C(=O)Nc2ccccc2OC)C1c1ccccc1[N+](=O)[O-] ?
> 100 µM

# query: TGI of entry NC(=O)c1ccc2c(c1)-c1nc-2nc2[n-]c(nc3nc(nc4[n-]c(n1)c1ccc(C(N)=O)cc41)-c1ccc(C(N)=O)cc1-3)c1ccc(C(N)=O)cc21.[Co+2]
> 50 µM

Need TGI of C=C1CC(C)(COc2ccc3c(C)c(Cl)c(=O)oc3c2)OC1=O (stereo not drawn) , thanks.
7.95 µM

# get_value(readout='TGI', item= CC1(C)CCC(Sc2ccccc2)O1 (stereo not drawn) )
> 100 µM

Fill blank: measured TGI of the compound O=C1NC(=NCCc2ccc(F)cc2)S/C1=C\c1ccc2ncccc2c1 is ____.
> 25 µM

I am curious: what TGI value has been reported for COC(=O)c1ccc2c(c1)CC1(C2)Cc2cc3c(cc2C1)CCC3 ?
> 100 µM

###

Test system: UACC-257 melanoma
ASSAY PROCEDURE: NCI tumour cell line growth inhibition, 48 h
MEASUREMENT NAME: TGI

# count of solved cases: 2
[
  {
    "COMPOUND": "CC1(C)CCN2C(=O)C34CCCC3CC21S4 (stereo not drawn)",
    "ASSAY VALUE": "> 100 µM"
  },
  {
    "COMPOUND": "CCOC1=C2N=C(C(CC)c3ccccc3F)N=C2C(=O)c2ccccc21 (stereo not drawn)",
    "ASSAY VALUE": "> 100 µM"
  }
]

Continue with the compound presented below.
Using the record for CN(C)CCNC(=O)c1cccc2c1nc(-c1ccc(F)cc1)c1ccccc12 , report its TGI.
11.2 µM

###

Test system: SNB-19 CNS
ASSAY PROCEDURE: NCI tumour cell line growth inhibition, 48 h
TGI values by entry

Use these answered entries as a reference point.
[
  {
    "COMPOUND": "CCN(CC)c1ccc(/C=C/C(=O)c2ccc(Nc3nc(Nc4ccccc4)nc(Nc4ccccc4)n3)cc2)cc1",
    "TEST TARGET": "SNB-19 CNS",
    "TGI": "> 100 µM"
  },
  {
    "COMPOUND": "CSc1nc(=S)[nH]c2c1c(C)nn2-c1ccccc1",
    "TEST TARGET": "SNB-19 CNS",
    "TGI": "> 100 µM"
  },
  {
    "COMPOUND": "O=[N+]([O-])c1ccc(SN=S=NSc2cccc(SN=S=NSc3ccc([N+](=O)[O-])cc3)c2)cc1",
    "TEST TARGET": "SNB-19 CNS",
    "TGI": "> 100 µM"
  }
]

Query: TGI; subject: c1cc(N[C@@H]2CCNC2)nc(-c2cnc3ccc(-c4cn[nH]c4)cn23)c1
34.9 µM

# get_value(readout='TGI', item= COC(=O)C(=O)C(C(=O)OC)C(=O)C(=O)Nc1c(C)cccc1C (centres undefined) )
> 100 µM

Param item = O=C1NC2NC3NC(=O)NC3NC2N1 (centres undefined) ; retrieve measured TGI.
> 100 µM

Could you share which TGI value was measured for O=C(CNc1ccccn1)Nn1cnc2ccc(S(=O)(=O)Nc3ccccn3)cc2c1=O ?
> 100 µM

What value of TGI has been recorded for this entry: CC(C)c1cccc(C(C)C)c1NC(=O)C(=O)Cc1nc2ccc([N+](=O)[O-])cc2[nH]c1=O
> 100 µM

Bench note: what TGI did O=C1c2ccccc2C(=O)c2cc3c(cc21)CS(=O)C3 show?
> 100 µM

# query: TGI of entry O=C1CC2OCC=C3CN4CCC56c7ccccc7N1C5C2C3CC46O (centres undefined)
> 100 µM

TGI lookup needed for CC(C)N(C(=O)C12C3C4C1C1C2C3C41C#N)C(C)C (centres undefined) , thanks.
> 100 µM

Dear colleague, I am looking for the recorded TGI of the following compound: CC1(C)OP(=O)(c2ccccc2)C=C1Sc1ccc([N+](=O)[O-])cc1[N+](=O)[O-] (centres undefined)
> 100 µM

What does the record list as TGI for CCOC(=O)N/N=C(/N)c1cccc(Br)c1 ?
> 100 µM

Any idea what its TGI is? The compound is O=C(Cc1ccccc1)NN1C(=O)C(Cl)C1c1ccccc1Cl (centres undefined)
> 100 µM

Which TGI value belongs to CC(C)=CCc1cc2c(cc1O)C1=C(C(=O)C3=C(C1=O)S(=O)(=O)CCN3)C(C=C(C)C)O2 (centres undefined) ?
2.64 µM

Item CCOCC1(COCC)CCC(c2[nH]ncc2CN(C)CCNC)CC1 has what recorded TGI?
> 100 µM

###

System: OVCAR-8 ovarian
ASSAY PROCEDURE: NCI tumour cell line growth inhibition, 48 h
Each item that follows carries a reported GI50.

Example entries and their recorded answers appear below.
[
  {
    "COMPOUND": "Cc1cc(=O)oc2ccc(OC/C=C3\\CCC(=O)O3)cc12",
    "GI50": "10 µM"
  },
  {
    "COMPOUND": "CCOCC1(COCC)CCC(c2[nH]ncc2CN(C)CCNC)CC1",
    "GI50": "> 100 µM"
  },
  {
    "COMPOUND": "O=C1CC(c2c[nH]c3ccc(F)cc23)C(=O)N1 (centres undefined)",
    "GI50": "> 100 µM"
  },
  {
    "COMPOUND": "CCCCN(CCCC)C(=O)[C@H](CC)[C@@H]1CC[C@@H](C)[C@@H]([C@H](C)[C@@H](O)[C@@H](C)C(=O)[C@H](CC)C2O[C@]3(C=C[C@@H](O)[C@]4(CC[C@@](C)([C@H]5CC[C@](O)(CC)[C@H](C)O5)O4)O3)[C@H](C)C[C@@H]2C)O1 (some centres undefined)",
    "GI50": "3.43 µM"
  },
  {
    "COMPOUND": "NC(=O)c1ccc2c(c1)-c1nc-2nc2[n-]c(nc3nc(nc4[n-]c(n1)c1ccc(C(N)=O)cc41)-c1ccc(C(N)=O)cc1-3)c1ccc(C(N)=O)cc21.[Co+2]",
    "GI50": "> 50 µM"
  },
  {
    "COMPOUND": "c1ccc(-c2oc(-c3ccccc3)c(CN3CCCCC3)c2CN2CCCCC2)cc1",
    "GI50": "3.91 µM"
  },
  {
    "COMPOUND": "COc1cc(/C=C2\\C(=O)N(Cc3ccc(Cl)cc3)c3ccccc32)cc(OC)c1OC",
    "GI50": "3.4 µM"
  },
  {
    "COMPOUND": "CN1CCN(CC(=O)N(C)c2ccc(N=C(c3ccccc3)c3c(O)[nH]c4ccc(C#N)cc34)cc2)CC1",
    "GI50": "4.87 µM"
  }
]

Now consider the entry below.
What is its GI50 for OVCAR-8 ovarian? Entry: COc1cc(/C=C/C(=O)c2cccc(-n3cc(-c4cc(OC)c(OC)c(OC)c4)[nH]c3=O)c2)cc(OC)c1OC
2.32 µM
